Hello, the source for this data is patent US9302999B2, in case you need it.

- Tested on: soybean (Glycine max)
- EXPERIMENT_DESCRIPTION: Test C pre-/postemergence: soybean
- Assay type: in vivo
- PROTOCOL_CONDITIONS: Preemergence, 125 g ai/ha; scale 0 to 100, 0 no effect, 100 complete control
MEASUREMENT_LABEL: Plant response rating, Soybean

Test system soybean (Glycine max); read-out Plant response rating, Soybean; what value for `Cc1nn(-c2ccc(C(F)(F)F)cc2)nc1Oc1ccnc(C(F)(F)F)c1` ? 10

Please answer likewise for `Cc1nn(-c2ccc(C(F)(F)F)c(F)c2)nc1Oc1ccnc(C(F)(F)F)c1` 20

Further, for `CCCc1nn(-c2ccc(F)cc2)nc1Oc1ccnc(C(F)(F)F)c1` ? 10

Okay, and `FC(F)(F)COc1nn(-c2ccc(C(F)(F)F)cc2)nc1Cc1ccnc(C(F)(F)F)c1` ? 0

* * *

Assignment: determine reported Plant response rating: Mustard, Wild for the given compounds.
- Test system: mustard, wild (wild mustard, Sinapis arvensis)
- EXPERIMENT_DESCRIPTION: Test D pre-/postemergence: mustard, wild
- Format: in vivo
- PROTOCOL_CONDITIONS: Postemergence, 31 g ai/ha; scale 0 to 100 (0 no effect, 100 complete control)
Give the figure by itself; no unit, no explanation.

Find the recorded Plant response rating: Mustard, Wild belonging to `Cc1nn(-c2ccc(C(F)(F)F)cn2)nc1Cc1cccc(C(F)(F)F)c1` and report it. 80

Further, for `CCc1nn(-c2ccc(C(F)(F)F)cc2)nc1Cc1ccnc(C(F)(F)F)c1` ? 100

Same question for `COc1nn(-c2ccc(C(F)(F)F)cc2)nc1Cc1ccnc(C(F)F)c1` please. 90

Next compound up: `Cc1nn(-c2ccc(F)c(C(F)(F)F)c2)nc1Cc1ccnc(C(F)(F)F)c1` 95

Request: `CCOc1nn(-c2ccc(F)cc2)nc1Cc1ccnc(C(F)(F)F)c1` 100

// query: `FC(F)(F)COc1nn(-c2ccc(C(F)(F)F)cc2)nc1Cc1ccnc(C(F)(F)F)c1` 50

* * *

- Tested on: kochia (Kochia scoparia)
- EXPERIMENT_DESCRIPTION: Test D pre-/postemergence: kochia
- Type: in vivo
- PROTOCOL_CONDITIONS: Postemergence; 16 g ai/ha; scale 0 to 100
So I've got a bunch of compounds here, and I need their Plant response rating, Kochia values.
Respond numerically, and do not add a unit to the figure.

What measured Plant response rating, Kochia goes with Cc1nn(-c2ccc(C(F)(F)F)cc2)nc1Oc1ccnc(C(F)(F)F)c1 [Compound 120] ? 98

Another compound to look at: CCOc1nn(-c2ccc(F)cc2)nc1Cc1ccnc(C(F)(F)F)c1 [Compound 196] 70

Now try COc1nn(-c2ccc(C(F)(F)F)cc2)nc1Cc1ccnc(C(F)(F)F)c1 [Compound 15] . 20

Try Cc1nn(-c2ccc(C(F)(F)F)c(F)c2)nc1Oc1ccnc(C(F)(F)F)c1 [Compound 148] next. 75

Okay, and CCc1nn(-c2ccc(C(F)(F)F)cc2)nc1Cc1ccnc(C(F)(F)F)c1 [Compound 155] ? 70

Now the compound Cc1nn(-c2ccc(C(F)(F)F)cn2)nc1Cc1cccc(C(F)(F)F)c1 [Compound 106] 60

* * *

Could you please report measured Plant response rating, Lambsquarters for the items listed next?
- Test system: lambsquarters (Chenopodium album)
- EXPERIMENT_DESCRIPTION: Test D pre-/postemergence: lambsquarters
- Type: in vivo
- PROTOCOL_CONDITIONS: Preemergence, 31 g ai/ha; scale 0 to 100, 0 no effect, 100 complete control
The answer should be a number; do not append a unit.

I am curious: what Plant response rating, Lambsquarters value has been reported for CCc1nn(-c2ccc(C(F)(F)F)cc2)nc1Cc1ccnc(C(F)(F)F)c1 [Compound 155] ? 55

Can you handle Cc1nn(-c2ccc(C(F)(F)F)c(F)c2)nc1Oc1ccnc(C(F)(F)F)c1 [Compound 148] next? 40

Moving on to Cc1nn(-c2ccc(C(F)(F)F)cc2)nc1Oc1ccnc(C(F)(F)F)c1 [Compound 120] 80

Try COc1nn(-c2ccc(C(F)(F)F)cc2)nc1Cc1ccnc(C(F)(F)F)c1 [Compound 15] next. 0

* * *

- Tested on: galium (catchweed bedstraw, Galium aparine)
- EXPERIMENT_DESCRIPTION: Test D pre-/postemergence: galium
- Format: in vivo
- PROTOCOL_CONDITIONS: Postemergence; 16 g ai/ha; scale 0 to 100
I'd be grateful if you could share measured Plant response rating, Galium for these entries.
Reply with the value as a number alone.

What does the data say about its Plant response rating, Galium? Entry: `COc1nn(-c2ccc(C(F)(F)F)cc2)nc1Cc1ccnc(C(F)(F)F)c1` 50

// next record `Cc1nn(-c2ccc(C(F)(F)F)cn2)nc1Cc1cccc(C(F)(F)F)c1` 20

Now try `Cc1nn(-c2ccc(C(F)(F)F)cc2)nc1Oc1ccnc(C(F)(F)F)c1` . 50

Then what about the compound `CCc1nn(-c2ccc(C(F)(F)F)cc2)nc1Cc1ccnc(C(F)(F)F)c1` ? 65

* * *

Consider the following compounds; for each one, report its Plant response rating, Galium.
- Test system: galium (catchweed bedstraw, Galium aparine)
- EXPERIMENT_DESCRIPTION: Test C pre-/postemergence: galium
- Assay type: in vivo
- PROTOCOL_CONDITIONS: Postemergence, 125 g ai/ha; scale 0 to 100, 0 no effect, 100 complete control
- Description: […] Treated plants and controls were maintained in a greenhouse for 13 to 15 days, after which time all species were compared to controls and visually evaluated. […]
Form: value (number only, do not type unit).

What value of measured Plant response rating, Galium is listed for `CCCc1nn(-c2ccc(F)cc2)nc1Oc1ccnc(C(F)(F)F)c1` ? 90

What do you have for `CCCc1nn(-c2ccc(F)c(F)c2)nc1Oc1ccnc(C(F)(F)F)c1` ? 90

Next: `CCOc1nn(-c2ccc(F)cc2)nc1Cc1ccnc(C(F)(F)F)c1` 90

Also `CCCc1nn(-c2ccc(C(F)(F)F)cc2)nc1Oc1ccnc(C(F)(F)F)c1` ? 90

Now this one: `CCc1nn(-c2ccc(C(F)(F)F)cc2)nc1Oc1ccnc(C(F)(F)F)c1` 90

Repeat with `CCOc1nn(-c2ccc(C(F)(F)F)cc2)nc1Cc1ccnc(C(F)(F)F)c1` 60

Queued: `Cc1nn(-c2ccnc(Cl)c2)nc1Cc1ccnc(C(F)(F)F)c1` 90

Do the same for `Cc1nn(-c2ccc(C(F)(F)F)cn2)nc1Oc1ccnc(C(F)(F)F)c1` please 90

Follow-up entry: `Fc1ccc(-n2nc(Cc3ccnc(C(F)(F)F)c3)c(OC(F)F)n2)cc1` 55

* * *

- Tested on: chickweed (common chickweed, Stellaria media)
- EXPERIMENT_DESCRIPTION: Test D pre-/postemergence: chickweed
- Format: in vivo
- PROTOCOL_CONDITIONS: Preemergence; 125 g ai/ha; scale 0 to 100
MEASUREMENT_LABEL: Plant response rating, Chickweed

Which measured Plant response rating, Chickweed value corresponds to COc1nn(-c2ccc(C(F)(F)F)cc2)nc1Cc1ccnc(C(F)(F)F)c1 [Compound 15] ? 100

Same lookup for CCOc1nn(-c2ccc(F)cc2)nc1Cc1ccnc(C(F)(F)F)c1 [Compound 196] , please. 100

Same question, Cc1nn(-c2ccc(C(F)(F)F)c(F)c2)nc1Oc1ccnc(C(F)(F)F)c1 [Compound 148] this time 100

Same lookup for Cc1nn(-c2ccc(F)c(C(F)(F)F)c2)nc1Cc1ccnc(C(F)(F)F)c1 [Compound 156] , please. 100

What would you report for Cc1nn(-c2ccc(C(F)(F)F)cc2)nc1Oc1ccnc(C(F)(F)F)c1 [Compound 120] ? 100

* * *

- System: chickweed (common chickweed, Stellaria media)
- EXPERIMENT_DESCRIPTION: Test D pre-/postemergence: chickweed
- Type: in vivo
- PROTOCOL_CONDITIONS: Postemergence, 125 g ai/ha; scale 0 to 100, 0 no effect, 100 complete control
Consider the following compounds; for each one, report its Plant response rating: Chickweed.

Need Plant response rating: Chickweed of `COc1nn(-c2ccc(C(F)(F)F)cc2)nc1Cc1ccnc(C(F)F)c1` , thanks. 95

What do we get for `Cc1nn(-c2ccc(F)c(C(F)(F)F)c2)nc1Cc1ccnc(C(F)(F)F)c1` ? 95

Same thing, different compound: `Cc1nn(-c2ccc(C(F)(F)F)c(F)c2)nc1Oc1ccnc(C(F)(F)F)c1` 90

And the next one, `Cc1nn(-c2ccc(C(F)(F)F)cn2)nc1Cc1cccc(C(F)(F)F)c1` ? 90

Continue with `CCc1nn(-c2ccc(C(F)(F)F)cc2)nc1Cc1ccnc(C(F)(F)F)c1` 100

* * *

I'd appreciate it if you could supply Plant response rating, Ryegrass, Italian values for the items below.
- System: ryegrass, Italian (Italian ryegrass, Lolium multiflorum)
- EXPERIMENT_DESCRIPTION: Test F pre-/postemergence: ryegrass, Italian
- Type: in vivo
- PROTOCOL_CONDITIONS: Preemergence; 125 g ai/ha; scale 0 to 100
Would you mind answering with just the numeric figure?

May I ask what Plant response rating, Ryegrass, Italian has been recorded for CCCc1nn(-c2ccc(F)c(F)c2)nc1Oc1ccnc(C(F)(F)F)c1 [Compound 172] ? 100

Same for COc1nn(-c2cccc(F)c2)nc1Cc1ccnc(C(F)(F)F)c1 [Compound 139] 30

Also need CCOc1nn(-c2ccc(F)cc2)nc1Cc1ccnc(C(F)(F)F)c1 [Compound 196] , thanks. 100

Moving on to the next compound: Cc1nn(-c2ccc(F)cc2F)nc1Oc1ccnc(C(F)(F)F)c1 [Compound 146] 20
